- assayed target: IRAK3-ePL (Homo sapiens)
- Construct: expressed in transfected cells; host or cells: 293T CRBN OE/GSPT1 G575N KI cells, lentiviral transduction, puromycin selected
- assay remarks: IRAK3-ePL overexpressing degradation assay (InCELL Hunter luminescence, dose response)
- Format: cell-based
- conditions used: lowest percentage of target protein remaining following compound treatment
Assign labels as follows, please: 1 (yes) for IRAK3 ePL degradation Ymin below 20%; 0 (no) for IRAK3 ePL degradation Ymin equal to or exceeding 20%.

Example entries and their recorded answers appear below.
compound | assayed target | group label
Cc1cc(-c2cnc(Nc3cnn([C@H]4CC[C@H](CCN5CCN(c6ccc([C@]7(C)CCC(=O)NC7=O)cc6)CC5)CC4)c3)c3nccn23)c(F)cc1F | IRAK3-ePL (Homo sapiens) | 0 (no)
Cc1cc(-c2cnc(Nc3cnn(C4CCN(CC(=O)N5CCN(c6ccc(C7CCC(=O)NC7=O)cc6)CC5)CC4)c3)c3nccn23)c(F)cc1F (stereo not drawn) | IRAK3-ePL (Homo sapiens) | 1 (yes)
Cc1cc(-c2cnc(Nc3cnn(C4CCN(CCN5CCN(c6ccc([C@]7(C)CCC(=O)NC7=O)cc6)CC5)CC4)c3)c3nccn23)c(F)cc1F | IRAK3-ePL (Homo sapiens) | 0 (no)

Q: Determine whether this compound shows IRAK3 ePL degradation Ymin lower than 20% (ties excluded): O=C1CCC(c2ccc(N3CCN(CCN4CCC(n5cc(Nc6ncc(-c7ccccc7F)n7ccnc67)cn5)CC4)CC3)cc2)C(=O)N1 (stereo not drawn)
Result: 0 (no)

Q: Determine whether this compound shows IRAK3 ePL degradation Ymin lower than 20% (ties excluded): CS(=O)(=O)c1ccccc1-c1cnc(Nc2cnn(C3CCN(CCN4CCN(c5ccc(C6CCC(=O)NC6=O)cc5)CC4)CC3)c2)c2nccn12 (stereo not drawn)
Result: 0 (no)

Q: Determine whether this compound shows IRAK3 ePL degradation Ymin lower than 20% (ties excluded): Cc1cc(-c2ccc(Nc3cnn(C4CCN(CCN5CCN(c6ccc(C7CCC(=O)NC7=O)cc6)CC5)CC4)c3)c3nccn23)c(F)cc1F (stereo not drawn)
Result: 1 (yes)

Q: Determine whether this compound shows IRAK3 ePL degradation Ymin lower than 20% (ties excluded): COc1cc(C2CCC(=O)NC2=O)ccc1N1CCN(CCN2CCC(n3cc(Nc4ncc(-c5cc(C)c(F)cc5F)n5ccnc45)cn3)CC2)CC1 (stereo not drawn)
Result: 0 (no)

Q: Determine whether this compound shows IRAK3 ePL degradation Ymin lower than 20% (ties excluded): CN1CCOc2ccc(-c3cnc(Nc4cnn([C@H]5CC[C@H](CCN6CCN(c7ccc(C8CCC(=O)NC8=O)cc7)CC6)CC5)c4)c4nccn34)cc21 (stereo partly drawn)
Result: 0 (no)

Q: Determine whether this compound shows IRAK3 ePL degradation Ymin lower than 20% (ties excluded): Cc1cc(-c2cnc(Nc3cnn(C4CCN(CCN5CCN(c6ccc([C@@]7(C)CCC(=O)NC7=O)cc6)CC5)CC4)c3)c3nccn23)c(F)cc1F
Result: 0 (no)
